The following are reported Ki results, target or system Mu-type opioid receptor (Mus musculus, UniProt P42866).
Give bare numbers, in nM.

INSERT INTO results (compound, measurement_kind, uom, measurement) VALUES
  ('CC(C)c1nnc(CCNC(=O)COCC(=O)NCCCCCCCCCNC(=O)COCC(=O)N[C@@H]2CC[C@@]3(O)[C@H]4Cc5ccc(O)c6c5[C@@]3(CCN4CC3CC3)[C@H]2O6)n1C1C[C@H]2CC[C@@H](C1)N2CC[C@H](NC(=O)C1CCC(F)(F)CC1)c1ccccc1 (some centres undefined)', 'Ki', 'nM', 11.2),
  ('Cc1nnc(C(C)C)n1C1C[C@H]2CC[C@@H](C1)N2CC[C@H](NC(=O)C1CCC(F)(F)CC1)c1ccc(NC(=O)COCC(=O)NCCCCCCCNC(=O)COCC(=O)N[C@@H]2CC[C@@]3(O)[C@H]4Cc5ccc(O)c6c5[C@@]3(CCN4CC3CC3)[C@H]2O6)cc1 (some centres undefined)', 'Ki', 'nM', 51.8),
  ('CC(C)c1nnc(CCNC(=O)COCC(=O)NCCCCCCCNC(=O)COCC(=O)N[C@@H]2CC[C@@]3(O)[C@H]4Cc5ccc(O)c6c5[C@@]3(CCN4CC3CC3)[C@H]2O6)n1C1C[C@H]2CC[C@@H](C1)N2CC[C@H](NC(=O)C1CCC(F)(F)CC1)c1ccccc1 (some centres undefined)', 'Ki', 'nM', 6.05);

// sample CC(C)c1nnc(CCNC(=O)COCC(=O)NCCCCCNC(=O)COCC(=O)N[C@@H]2CC[C@@]3(O)[C@H]4Cc5ccc(O)c6c5[C@@]3(CCN4CC3CC3)[C@H]2O6)n1C1C[C@H]2CC[C@@H](C1)N2CC[C@H](NC(=O)C1CCC(F)(F)CC1)c1ccccc1 (some centres undefined) , its Ki was 4.23

====

METHOD: Cytotoxicity against human GHOST CCR5 cells assessed as reduction in cell viability measured after 6 days by XTT assay
Type: toxicity, cell-based
CONDITION: time 6 day, read-out: TC50
MEASUREMENT KIND: CC50 at 144 h

INSERT INTO assay_data (molecule, measurement) VALUES
  ('Cc1nnc(C(C)C)n1C1C[C@H]2CC[C@@H](C1)N2CC[C@H](NC(=O)C1CCC(F)(F)CC1)c1ccc(NC(=O)COCC(=O)NCCCCCCCNC(=O)COCC(=O)N[C@@H]2CC[C@@]3(O)[C@H]4Cc5ccc(O)c6c5[C@@]3(CCN4CC3CC3)[C@H]2O6)cc1 (stereo partly drawn)', '> 100 µM');

Your task in this section: give CC50 at 144 h for each listed record.
1. CC(C)c1nnc(CCNC(=O)COCC(=O)NCCCCCCCNC(=O)COCC(=O)N[C@@H]2CC[C@@]3(O)[C@H]4Cc5ccc(O)c6c5[C@@]3(CCN4CC3CC3)[C@H]2O6)n1C1C[C@H]2CC[C@@H](C1)N2CC[C@H](NC(=O)C1CCC(F)(F)CC1)c1ccccc1 (stereo partly drawn)
2. Cc1nnc(C(C)C)n1[C@@H]1C[C@H]2CC[C@@H](C1)N2CC[C@H](NC(=O)C1CCC(F)(F)CC1)c1ccccc1

Data returned:
1: > 100 µM; 2: > 0.5 µM

====

TGT: UniProt P42866
METHOD: Antagonist activity at mouse MOR expressed in CHO cells assessed as inhibition of DAMGO-induced calcium mobilization preincubated for 60 mins measured after 15 mins by calcium mobilization assay
MEASUREMENT KIND: pIC50
Numbers only, as −log10 of the molar value.

Illustrative cases are given below, each with its answer.
INSERT INTO results (compound, measurement_kind, measurement) VALUES
  ('CC(C)c1nnc(CCNC(=O)COCC(=O)NCCCCCCCNC(=O)COCC(=O)N[C@@H]2CC[C@@]3(O)[C@H]4Cc5ccc(O)c6c5[C@@]3(CCN4CC3CC3)[C@H]2O6)n1C1C[C@H]2CC[C@@H](C1)N2CC[C@H](NC(=O)C1CCC(F)(F)CC1)c1ccccc1 (some centres undefined)', 'pIC50', 7.30),
  ('Cc1nnc(C(C)C)n1C1C[C@H]2CC[C@@H](C1)N2CC[C@H](NC(=O)C1CCC(F)(F)CC1)c1ccc(NC(=O)COCC(=O)NCCCCCCCNC(=O)COCC(=O)N[C@@H]2CC[C@@]3(O)[C@H]4Cc5ccc(O)c6c5[C@@]3(CCN4CC3CC3)[C@H]2O6)cc1 (some centres undefined)', 'pIC50', 7.40);

# per-item lookup of pIC50; items listed below
1. CC(C)c1nnc(CCNC(=O)COCC(=O)NCCCCCCCCCNC(=O)COCC(=O)N[C@@H]2CC[C@@]3(O)[C@H]4Cc5ccc(O)c6c5[C@@]3(CCN4CC3CC3)[C@H]2O6)n1C1C[C@H]2CC[C@@H](C1)N2CC[C@H](NC(=O)C1CCC(F)(F)CC1)c1ccccc1 (some centres undefined)
2. CC(C)c1nnc(CCNC(=O)COCC(=O)NCCCCCNC(=O)COCC(=O)N[C@@H]2CC[C@@]3(O)[C@H]4Cc5ccc(O)c6c5[C@@]3(CCN4CC3CC3)[C@H]2O6)n1C1C[C@H]2CC[C@@H](C1)N2CC[C@H](NC(=O)C1CCC(F)(F)CC1)c1ccccc1 (some centres undefined)

Data returned:
1. 7.13
2. 5.96

====

So I've got a bunch of molecules here, and I need their IC50 values.
TGT: C-C chemokine receptor type 5 (Homo sapiens, UniProt P51681)
Sequence (P51681 whole entry): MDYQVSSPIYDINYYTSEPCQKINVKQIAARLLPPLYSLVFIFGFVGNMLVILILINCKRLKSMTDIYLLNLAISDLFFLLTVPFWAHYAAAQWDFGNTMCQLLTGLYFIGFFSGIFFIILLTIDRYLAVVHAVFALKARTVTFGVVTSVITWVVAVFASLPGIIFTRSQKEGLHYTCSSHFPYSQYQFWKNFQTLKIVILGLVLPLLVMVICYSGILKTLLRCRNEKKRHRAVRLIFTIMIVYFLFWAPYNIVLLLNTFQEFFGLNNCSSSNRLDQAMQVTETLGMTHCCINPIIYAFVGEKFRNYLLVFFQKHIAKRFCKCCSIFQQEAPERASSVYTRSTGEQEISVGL
METHOD: Antagonist activity at CCR5 (unknown origin) expressed in HOS cells co-expressing Gqi-5 assessed as inhibition CCL5-stimulated Ca2+ mobilization by calcium mobilization assay
Give bare numbers, in nM.

Example entries begin here.
INSERT INTO measurements (molecule, measurement_kind, measurement) VALUES
  ('CC(C)c1nnc(CCNC(=O)COCC(=O)NCCCCCCCNC(=O)COCC(=O)N[C@@H]2CC[C@@]3(O)[C@H]4Cc5ccc(O)c6c5[C@@]3(CCN4CC3CC3)[C@H]2O6)n1C1C[C@H]2CC[C@@H](C1)N2CC[C@H](NC(=O)C1CCC(F)(F)CC1)c1ccccc1 (some centres undefined)', 'IC50', 57.5),
  ('Cc1nnc(C(C)C)n1C1C[C@H]2CC[C@@H](C1)N2CC[C@H](NC(=O)C1CCC(F)(F)CC1)c1ccc(NC(=O)COCC(=O)NCCCCCCCNC(=O)COCC(=O)N[C@@H]2CC[C@@]3(O)[C@H]4Cc5ccc(O)c6c5[C@@]3(CCN4CC3CC3)[C@H]2O6)cc1 (some centres undefined)', 'IC50', 126),
  ('CC(C)c1nnc(CCNC(=O)COCC(=O)NCCCCCCCCCNC(=O)COCC(=O)N[C@@H]2CC[C@@]3(O)[C@H]4Cc5ccc(O)c6c5[C@@]3(CCN4CC3CC3)[C@H]2O6)n1C1C[C@H]2CC[C@@H](C1)N2CC[C@H](NC(=O)C1CCC(F)(F)CC1)c1ccccc1 (some centres undefined)', 'IC50', 965);

Next item in the queue.
The value of IC50 measured for the molecule CC(C)c1nnc(CCNC(=O)COCC(=O)NCCCCCNC(=O)COCC(=O)N[C@@H]2CC[C@@]3(O)[C@H]4Cc5ccc(O)c6c5[C@@]3(CCN4CC3CC3)[C@H]2O6)n1C1C[C@H]2CC[C@@H](C1)N2CC[C@H](NC(=O)C1CCC(F)(F)CC1)c1ccccc1 (some centres undefined) turned out to be 1260

====

METHOD: Therapeutic index, ratio of TC50 for human GHOST CCR5 cells to EC50 for inhibition of CCR5-mediated HIV-1 Bal entry in human GHOST CCR5 cells
Assay type: toxicity, cell-based
CONDITION: read-out: TI
MEASUREMENT KIND: selectivity ratio

Quick note, selectivity ratio for CC(C)c1nnc(CCNC(=O)COCC(=O)NCCCCCCCNC(=O)COCC(=O)N[C@@H]2CC[C@@]3(O)[C@H]4Cc5ccc(O)c6c5[C@@]3(CCN4CC3CC3)[C@H]2O6)n1C1C[C@H]2CC[C@@H](C1)N2CC[C@H](NC(=O)C1CCC(F)(F)CC1)c1ccccc1 (stereo partly specified) landed at > 1080
